test system: Serratia marcescens expressing IMP-1 (CL5741); type: cell-based; conditions: with imipenem 1 μg/ml; 95% inhibition of bacterial growth
assay metric: Serratia marcescens (IMP-1) MITC95 (µM)
# unit: µM | format: bare number

The examples below pair each entry with its known result.
>>> print(df.to_string())
                                   compound                        assay_metric  value_observed
0  CC[C@H](CN)NS(=O)(=O)c1ccc(-c2cccc3[nH]c(N)nc23)c(-c2nn[nH]n2)c1S(N)(=O)=O [Example 265]  Serratia marcescens (IMP-1) MITC95          0.7813
1  N[C@H]1CNC[C@H]1NS(=O)(=O)c1ccc(-c2cnc3cc[nH]c3c2)c(-c2nn[nH]n2)c1S(N)(=O)=O [Example 320]  Serratia marcescens (IMP-1) MITC95          0.7813
2  Nc1nc2c(-c3ccc(S(=O)(=O)N[C@H]4CCNC4)c(S(N)(=O)=O)c3-c3nn[nH]n3)cc(F)cc2[nH]1 [Example 399]  Serratia marcescens (IMP-1) MITC95           1.563
3  NCCNS(=O)(=O)c1ccc(-c2cccc(NC[C@@H](N)CO)c2)c(-c2nn[nH]n2)c1S(N)(=O)=O [Example 349]  Serratia marcescens (IMP-1) MITC95           1.563
4  Nc1ccc(-c2ccc(S(=O)(=O)N[C@@H]3CCCNC3)c(S(N)(=O)=O)c2-c2nn[nH]n2)cn1 [Example 490]  Serratia marcescens (IMP-1) MITC95           1.563

Input line: Endpoint output: Serratia marcescens (IMP-1) MITC95 of CN(C1CNC1)S(=O)(=O)c1ccc(-c2cccc3[nH]c(N)nc23)c(-c2nn[nH]n2)c1S(N)(=O)=O [Example 255] . Value?
Output line: 0.7813

Input line: Serratia marcescens (IMP-1) MITC95 for NC[C@@H](N)CNS(=O)(=O)c1ccc(-c2cccc3[nH]c(N)nc23)c(-c2nn[nH]n2)c1S(N)(=O)=O [Example 375] ?
Output line: 1.563

Input line: What measured Serratia marcescens (IMP-1) MITC95 goes with Nc1nc2c(-c3ccc(S(=O)(=O)NC[C@]4(N)CCNC4)c(S(N)(=O)=O)c3-c3nn[nH]n3)cccc2[nH]1 [Example 250] ?
Output line: 0.7813

Input line: For the compound C[C@H](N)CNS(=O)(=O)c1ccc(-c2ccnc(N)c2)c(-c2nn[nH]n2)c1S(N)(=O)=O [Example 421] , what Serratia marcescens (IMP-1) MITC95 is on record?
Output line: 0.7813

Input line: Which Serratia marcescens (IMP-1) MITC95 is listed for NCCNC(=O)c1cc(Cl)cc(-c2ccc(S(=O)(=O)NCCN)c(S(N)(=O)=O)c2-c2nn[nH]n2)c1N [Example 447] ?
Output line: 0.7813
